target: Neuropeptide Y receptor type 1 (Homo sapiens, UniProt P25929); assay: Displacement of [125I]PYY from NPY1 receptor in human SK-N-MC cells after 1 hr by microbeta scintillation counting analysis
Sequence (P25929 whole entry): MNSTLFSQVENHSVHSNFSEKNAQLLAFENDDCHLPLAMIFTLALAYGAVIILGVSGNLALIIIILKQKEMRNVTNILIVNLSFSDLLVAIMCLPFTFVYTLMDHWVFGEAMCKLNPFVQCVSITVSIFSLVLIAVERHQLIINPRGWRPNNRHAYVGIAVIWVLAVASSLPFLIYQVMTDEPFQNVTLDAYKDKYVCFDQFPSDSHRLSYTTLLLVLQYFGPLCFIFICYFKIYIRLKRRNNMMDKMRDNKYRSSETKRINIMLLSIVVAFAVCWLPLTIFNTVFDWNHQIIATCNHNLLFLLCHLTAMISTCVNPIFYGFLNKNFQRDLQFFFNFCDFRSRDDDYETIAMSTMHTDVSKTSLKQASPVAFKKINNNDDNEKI
# maps each entry to its IC50
Please reply with the bare figure in µM and do not write the unit itself.

Some solved entries appear below for comparison.
- MOLECULE: "CCOc1cccc(C2(N3CCN(c4ccccn4)CC3)C3CC(C)CC32)c1 (stereo not given)"
  TESTED SYSTEM: "Neuropeptide Y receptor type 1 (Homo sapiens, UniProt P25929)"
  PROPERTY NAME: "IC50"
  RECORDED VALUE: 0.042
- MOLECULE: "CCOc1cccc(C2(N3CCN(c4cncnc4)CC3)C3CC(C)CC32)c1 (stereo not given)"
  TESTED SYSTEM: "Neuropeptide Y receptor type 1 (Homo sapiens, UniProt P25929)"
  PROPERTY NAME: "IC50"
  RECORDED VALUE: 5.03
- MOLECULE: "CCOc1cccc(C2(N3CCN(c4cccnc4)CC3)C3CC(C)CC32)c1 (stereo not given)"
  TESTED SYSTEM: "Neuropeptide Y receptor type 1 (Homo sapiens, UniProt P25929)"
  PROPERTY NAME: "IC50"
  RECORDED VALUE: 0.892
- MOLECULE: "CCOc1cccc(C2(N3CCN(c4ccccc4)CC3)C3CC(C)CC32)c1 (stereo not given)"
  TESTED SYSTEM: "Neuropeptide Y receptor type 1 (Homo sapiens, UniProt P25929)"
  PROPERTY NAME: "IC50"
  RECORDED VALUE: 0.062

Consider the additional molecule presented here.
(Q) Given CCOc1cccc(C2(N3CCN(c4cnccn4)CC3)C3CC(C)CC32)c1 (stereo not given) , respond with its IC50.
(A) 0.265
